Tested on: MALME-3M melanoma
Assay: NCI-60 one-dose screen, 48 h (100 = growth as untreated, 0 = no growth, -100 = all killed)
Conditions: 10 µM unless noted
Compounds without any hit were thinned out: in the full panel of roughly 83,000, 20% have a hit.
quantity.measured: growth (%)

                                   compound  target_or_test_system  quantity_measured  value_observed
0  O=c1[nH]c(Sc2sc3ccc(Cl)cc3c2CBr)nc(=S)[nH]1      MALME-3M melanoma             growth            27.4
1  CCn1c(SCC(=O)Nc2cccc(C(=O)/C=C/c3cc(OC)c(OC)c(OC)c3)c2)nc2ccccc2c1=O      MALME-3M melanoma             growth            61.8
2  CCNC(=O)N1CCc2cc(OC)c(OCCc3ccc(OC)cc3)cc2C1c1ccc([N+](=O)[O-])cc1C (stereo unspecified)      MALME-3M melanoma             growth            63.8
3  Oc1cccc2ccc(-c3nnc(SCc4ccc(O)c5ncccc45)o3)nc12      MALME-3M melanoma             growth           -3.31
4  COc1ccc(NCc2cn(-c3ccc(C(=O)O)cc3)nc2-c2cc(C(F)(F)F)cc(C(F)(F)F)c2)cc1      MALME-3M melanoma             growth            86.8
5  O=C(O)c1cn(C2CC2)c2cc(N3CCN(C(=O)CN4C(=O)CSC4=O)CC3)c(F)cc2c1=O      MALME-3M melanoma             growth             103
